Assign Numbers of snout beetles caught in yellow Delta traps, Rep. 6 to each entry below.
System: snout beetles
Test: Field test of individual odorants in yellow Delta traps
Type: in vivo, Eremnus setulosus and/or Phlyctinus calosus
Settings: replication 6; traps at ground level against apple tree trunks, collected after one week
Answers are plain numbers.

Past entries and their recorded results:
# compound, numeric.result
measured = [
    ("O=C(O)C1CC1", 19),
    ("COc1ccccc1", 3),
]

Return reported Numbers of snout beetles caught in yellow Delta traps, Rep. 6 values for all items listed beneath this line.
1. CC(=O)CCC(C)C
2. COc1cccc(C(C)=O)c1
3. COC1=C(C)OC(C)C1=O (centres unmarked)

Return:
1: 2; 2: 2; 3: 7
